conditions: Slc:ICR, mouse, not told, iv
property.name: Permeability into the brain: content in Plasma

{"molecule": "Cc1ccc2sc(/C=C/c3ccc(Cl)cc3)nc2c1", "assay.result": "2.7 % ID/g or ml"}
{"molecule": "CNc1ccc(/C=C/c2nc3cc(I)ccc3o2)cc1", "assay.result": "1.2 % ID/g or ml"}
{"molecule": "CNc1ccc(/C=C/C=C/c2nc3ccccc3[nH]2)cc1", "assay.result": "1.7 % ID/g or ml"}
{"molecule": "CN(C)c1ncc(/C=C/c2nc3ccc(OCCF)cc3o2)s1", "assay.result": "2.1 % ID/g or ml"}
{"molecule": "CNc1ccc(/C=C/c2nc3cc(F)ccc3o2)cc1", "assay.result": "1.2 % ID/g or ml"}
{"molecule": "Cc1nc(/C=C/c2cnc(N(C)C)s2)oc1C", "assay.result": "2.1 % ID/g or ml"}
{"molecule": "Nc1ccc(-c2ccc3ccccc3n2)cc1 [BF-170, 2-[(4-amino)phenyl]-quinoline]", "assay.result": "1.4 % ID/g or ml"}
{"molecule": "CN(C)c1ncc(/C=C/c2ccc3ccccc3n2)s1", "assay.result": "2.0 % ID/g or ml"}
{"molecule": "C(=C\\c1nc2ccccc2s1)/c1ccccc1", "assay.result": "1.9 % ID/g or ml"}
{"molecule": "Nc1ccc(/C=C/c2ccc3ccccc3n2)cc1 [BF-177, 2-[2-(4-aminophenyl)ethenyl]quinoline]", "assay.result": "1.6 % ID/g or ml"}
{"molecule": "C(=C\\c1nc2ccccc2o1)/c1ccccc1", "assay.result": "1.3 % ID/g or ml"}
{"molecule": "CCN(CC)c1ccc(/C=C/c2nc3ccccc3[nH]2)cc1", "assay.result": "2.7 % ID/g or ml"}
{"molecule": "CNc1ccc(/C=C/C=C/c2nc3ccccc3s2)cc1", "assay.result": "1.3 % ID/g or ml"}
{"molecule": "Fc1ccc(/C=C/c2nc3ccccc3s2)cc1", "assay.result": "1.4 % ID/g or ml"}
{"molecule": "CN(C)c1ncc(/C=C/c2nc3ccccc3o2)s1", "assay.result": "1.9 % ID/g or ml"}
{"molecule": "CN(C)c1cnc(/C=C/c2nc3ccccc3o2)o1", "assay.result": "2.5 % ID/g or ml"}
